Listed next: entries and their corresponding inhibition.
Test system: Hepatitis C virus NS3 helicase
method notes: inhibitors of HCV NS3 helicase, primary screen, biochemical, Cy5 molecular beacon fluorescence (AID 1800);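 further: 0% = DMSO wells and 100% = thioflavine S control wells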
condition description: NS3 helicase DNA unwinding, at 10.9 µM, stronger effect = higher value
In all, about 290,000 compounds went through this assay and about 1,600 (0.55%) were called active. This excerpt belongs to a sample that is enriched for actives.
Numeric only. Scale: %

Reference set (5 entries):
                                   compound  reading
0  COc1ccc(NC(=O)CCC(=O)Nc2cc(OC)c(NC(=O)c3ccco3)cc2OC)c(OC)c1     7.66
1     Cc1cc(NC(=O)CSc2nnc(Nc3ccccc3F)s2)no1    -0.95
2  Cc1ccc(SC(CC(=O)c2ccc(C(C)(C)C)cc2)C(=O)O)cc1 (centres undefined)     44.4
3  NC(=O)C1CCN(CC(O)CSc2ccc(F)cc2)CC1 (centres undefined)     3.59
4  Cc1cccc(CCNS(=O)(=O)c2ccc(S(=O)(=O)NC3CCCC3)cc2)c1    -9.33

Problem: Give its inhibition value. Item: `Fc1cccc(Cl)c1CSc1ccc(-c2ccco2)nn1`
Solution: 5.94

Problem: // returns reported inhibition for input `O=C(CCCN1C(=O)/C(=C\c2ccco2)SC1=S)Nc1cccc2ccccc12`
Solution: 40.1

Problem: Query: inhibition; subject: `CCOc1ccccc1/C=c1\sc2nc(-c3ccco3)nn2c1=O`
Solution: 27.9

Problem: Which inhibition value is on record for `COc1ccc(NC(=O)CSc2ccc(-c3ccco3)nn2)c(OC)c1` ?
Solution: 36.8

Problem: Would you mind telling me what inhibition value was observed for `Cc1nc2nc(SCC(=O)NCc3ccco3)nn2c(C)c1Cc1ccccc1` ?
Solution: 2.25

Problem: For `O=c1nc2s/c(=C\c3ccco3)c(=O)n2nc1Cc1ccccc1` , what is its reported inhibition?
Solution: 45.8

Problem: Look up inhibition for this compound: `COc1ccc(-n2ncc3c(SCC(=O)NNC(C)=O)ncnc32)cc1`
Solution: 5.53

Problem: Can you look up the measured inhibition of `c1ccc(CSc2nnc(-c3ccco3)c(-c3ccco3)n2)cc1` for me?
Solution: 38.3

Problem: Recorded inhibition of `C=CCn1c(=NC(=O)c2cccs2)sc2cc(NC(C)=O)ccc21` , please.
Solution: -8.84

Problem: Fill in: inhibition of `Cc1ccc(C(=O)CSc2ccccc2C(=O)O)cc1` is ___
Solution: 2.55

Problem: // query inhibition value for entry `CC(=O)N(C)c1ccc(NC(=O)C(F)(F)F)cc1`
Solution: -2.62

Problem: Can you share its inhibition? I mean this compound: `COC(OC)c1ccnc(SCc2ccccc2Cl)n1`
Solution: -11.3

Problem: Name the reported inhibition value associated with the compound `Brc1ccc(CSc2ccc(-c3ccco3)nn2)cc1`
Solution: 3.25

Problem: // inhibition lookup, key: Cc1ccc(CSCC(N)C(=O)O)cc1 (centres undefined)
Solution: 0.78

Problem: So what does the record say about inhibition for `CCN(CC)C(=O)COc1coc(CN2CCN(Cc3ccccc3)CC2)cc1=O` ?
Solution: -0.99

Problem: Using the record for CC1CN(C(=S)Nc2cccc(F)c2)CC(C)O1 (centres undefined) , report its inhibition.
Solution: -3.8

Problem: Which inhibition value is on record for `CC1(C)NC(=O)N(CCCCSc2ccc(Cl)cc2)C1=O` ?
Solution: -1.4

Problem: What measured inhibition goes with `CN(C)c1ccc(N/C=C/C(=O)C(F)(F)F)cc1` ?
Solution: 47.6

Problem: Fill in the blank: the reported inhibition of `O=C(CSc1ccc(-c2ccco2)nn1)Nc1cccc(F)c1` is ____.
Solution: 20.3

Values from PubChem BioAssay AID1800
